Data provenance: ChEMBL document CHEMBL2380225

# SYSTEM TESTED: DNA topoisomerase 1 (Homo sapiens)
# MEASUREMENT NOTES: Inhibition of human topoisomerase 1 at 100 uM relative to control
VALUE KIND: inhibition (%)

MOL: COc1cc(O)ccc1/C=C/C(=O)c1ccc(O)cc1
SYSTEM TESTED: DNA topoisomerase 1 (Homo sapiens)
MEASUREMENT UNITS: %
inhibition: 88.9

MOL: COc1ccc(/C=C/C(=O)c2ccco2)cc1Br
SYSTEM TESTED: DNA topoisomerase 1 (Homo sapiens)
MEASUREMENT UNITS: %
inhibition: 92

P = COc1cc(O)ccc1C(=O)/C=C/c1ccc(F)cc1
Q = COc1cc(O)ccc1/C=C/C(=O)c1ccc(N)cc1
R = O=C(/C=C/c1ccc(F)cc1)c1ccc(O)cc1
Query: Reorder the items by inhibition, least to greatest. Answer with the labels in sequence, matching the requested order.
Result: Q, R, P

---

pIC50: −log10 of the molar value.
Procathepsin L (Homo sapiens): reported pIC50 for various compounds.
Sequence (P07711 whole entry): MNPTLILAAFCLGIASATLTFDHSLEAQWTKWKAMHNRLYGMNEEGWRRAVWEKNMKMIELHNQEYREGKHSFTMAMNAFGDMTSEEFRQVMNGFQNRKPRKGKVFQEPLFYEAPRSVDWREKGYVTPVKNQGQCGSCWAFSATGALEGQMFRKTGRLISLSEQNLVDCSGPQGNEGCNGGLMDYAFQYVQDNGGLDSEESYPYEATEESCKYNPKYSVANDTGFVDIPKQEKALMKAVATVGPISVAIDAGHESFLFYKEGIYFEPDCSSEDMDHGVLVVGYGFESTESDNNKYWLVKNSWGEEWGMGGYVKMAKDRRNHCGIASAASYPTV
VALUE KIND: pIC50

a = O=C(/C=C/c1ccc(N2CCCC2)cc1)c1ccc(F)cc1
b = COc1ccc(/C=C/C(=O)c2ccc(O)cc2)cc1Br
c = O=C(/C=C/c1ccc(N2CCCC2)cc1)c1ccc(O)cc1O
Query: Using the recorded pIC50, list the entries above from smallest to largest. Answer with the labels in sequence, matching the requested order.
Result: a, b, c
(a: 4.25, b: 4.53, c: 5.33)

I = COc1cc(O)ccc1/C=C/C(=O)c1ccc(NC(C)=O)cc1
II = COc1cc(O)ccc1/C=C/C(=O)c1ccc(F)cc1
III = O=C(/C=C/c1ccc(N2CCCC2)cc1)c1ccc(O)cc1
Query: Reorder the items by pIC50, least to greatest. Answer with the labels in sequence, matching the requested order.
Result: II, I, III

1 = COc1ccc(/C=C/C(=O)c2ccc(O)cc2O)cc1Br
2 = COc1cc(O)ccc1/C=C/C(=O)c1ccc(N)cc1
Query: // compare: 1 vs 2 , metric pIC50, want the smaller Use the label to indicate which entry you chose.
Result: 1
(1: 4.17, 2: 4.48)

---

Cathepsin B (Homo sapiens, UniProt P07858): reported pIC50 for various molecules.
pIC50: −log10 of the molar value.
VALUE KIND: pIC50

Here is how some molecules turned out for pIC50.
MOL: O=C(/C=C/c1ccc(N2CCCC2)cc1)c1ccc(O)cc1O
pIC50: 4.54
//
MOL: COc1cc(O)ccc1/C=C/C(=O)c1ccc(NC(C)=O)cc1
pIC50: 4.33

I = COc1cc(O)ccc1/C=C/C(=O)c1ccc(O)cc1
II = O=C(/C=C/c1ccc(N2CCCC2)cc1)c1ccc([N+](=O)[O-])cc1
Query: // compare: I vs II , metric pIC50, want the smaller Use the label to indicate which entry you chose.
Result: I
(I: 4.24, II: 4.54)

---

# SYSTEM TESTED: DNA topoisomerase 1 (Homo sapiens)
# Sequence (whole entry): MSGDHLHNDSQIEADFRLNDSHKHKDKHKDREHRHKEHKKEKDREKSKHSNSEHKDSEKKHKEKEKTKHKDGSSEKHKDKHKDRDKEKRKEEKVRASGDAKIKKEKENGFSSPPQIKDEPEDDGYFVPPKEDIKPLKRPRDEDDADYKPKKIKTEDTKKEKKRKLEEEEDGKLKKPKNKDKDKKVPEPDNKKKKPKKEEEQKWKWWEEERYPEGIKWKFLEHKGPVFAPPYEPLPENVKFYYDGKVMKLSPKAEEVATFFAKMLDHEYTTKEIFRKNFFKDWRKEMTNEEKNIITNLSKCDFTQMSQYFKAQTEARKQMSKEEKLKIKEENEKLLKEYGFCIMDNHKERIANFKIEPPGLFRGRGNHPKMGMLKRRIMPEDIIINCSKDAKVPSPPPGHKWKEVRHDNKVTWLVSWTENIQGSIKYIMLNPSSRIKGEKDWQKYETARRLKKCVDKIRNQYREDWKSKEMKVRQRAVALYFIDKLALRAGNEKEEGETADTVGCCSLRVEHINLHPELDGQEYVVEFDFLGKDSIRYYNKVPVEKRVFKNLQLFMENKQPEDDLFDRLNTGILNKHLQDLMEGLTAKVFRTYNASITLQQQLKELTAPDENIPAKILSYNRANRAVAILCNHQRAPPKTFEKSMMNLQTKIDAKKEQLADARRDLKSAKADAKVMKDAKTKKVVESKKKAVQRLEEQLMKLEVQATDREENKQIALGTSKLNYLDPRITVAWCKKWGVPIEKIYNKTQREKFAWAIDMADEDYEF
# MEASUREMENT NOTES: Inhibition of human topoisomerase 1 at 20 uM relative to control
VALUE KIND: inhibition (%)

Here is how some compounds turned out for inhibition.
COMPOUND: O=C(/C=C/c1ccc(N2CCCC2)cc1)c1ccc(O)cc1O
VALUE KIND: inhibition
VALUE MEASURED: 64.4
--
COMPOUND: COc1ccc(/C=C/C(=O)c2cccs2)cc1Br
VALUE KIND: inhibition
VALUE MEASURED: 2.1
--
COMPOUND: COc1ccc(/C=C/C(=O)c2ccc(O)cc2O)cc1Br
VALUE KIND: inhibition
VALUE MEASURED: 8.2
--
COMPOUND: O=C(/C=C/c1ccc(N2CCCC2)cc1)c1ccc(O)cc1
VALUE KIND: inhibition
VALUE MEASURED: 60
--
COMPOUND: COc1cc(O)ccc1/C=C/C(=O)c1ccc(O)cc1 [ECHINATIN]
VALUE KIND: inhibition
VALUE MEASURED: 2.1

A = COc1cc(O)ccc1/C=C/C(=O)c1ccc(NC(C)=O)cc1
B = COc1cc(O)ccc1/C=C/C(=O)c1ccc(F)cc1
C = O=C(/C=C/c1ccc(F)cc1)c1ccc(O)cc1O
Query: Sort the 3 compounds by inhibition; largest first, smallest last. Answer with the labels in sequence, matching the requested order.
Result: C, A, B
(C: 56.7%, A: 17.3%, B: 9.5%)

---

# SYSTEM TESTED: DNA topoisomerase 2-alpha (Homo sapiens) (UniProt P11388)
# Sequence (P11388 whole entry): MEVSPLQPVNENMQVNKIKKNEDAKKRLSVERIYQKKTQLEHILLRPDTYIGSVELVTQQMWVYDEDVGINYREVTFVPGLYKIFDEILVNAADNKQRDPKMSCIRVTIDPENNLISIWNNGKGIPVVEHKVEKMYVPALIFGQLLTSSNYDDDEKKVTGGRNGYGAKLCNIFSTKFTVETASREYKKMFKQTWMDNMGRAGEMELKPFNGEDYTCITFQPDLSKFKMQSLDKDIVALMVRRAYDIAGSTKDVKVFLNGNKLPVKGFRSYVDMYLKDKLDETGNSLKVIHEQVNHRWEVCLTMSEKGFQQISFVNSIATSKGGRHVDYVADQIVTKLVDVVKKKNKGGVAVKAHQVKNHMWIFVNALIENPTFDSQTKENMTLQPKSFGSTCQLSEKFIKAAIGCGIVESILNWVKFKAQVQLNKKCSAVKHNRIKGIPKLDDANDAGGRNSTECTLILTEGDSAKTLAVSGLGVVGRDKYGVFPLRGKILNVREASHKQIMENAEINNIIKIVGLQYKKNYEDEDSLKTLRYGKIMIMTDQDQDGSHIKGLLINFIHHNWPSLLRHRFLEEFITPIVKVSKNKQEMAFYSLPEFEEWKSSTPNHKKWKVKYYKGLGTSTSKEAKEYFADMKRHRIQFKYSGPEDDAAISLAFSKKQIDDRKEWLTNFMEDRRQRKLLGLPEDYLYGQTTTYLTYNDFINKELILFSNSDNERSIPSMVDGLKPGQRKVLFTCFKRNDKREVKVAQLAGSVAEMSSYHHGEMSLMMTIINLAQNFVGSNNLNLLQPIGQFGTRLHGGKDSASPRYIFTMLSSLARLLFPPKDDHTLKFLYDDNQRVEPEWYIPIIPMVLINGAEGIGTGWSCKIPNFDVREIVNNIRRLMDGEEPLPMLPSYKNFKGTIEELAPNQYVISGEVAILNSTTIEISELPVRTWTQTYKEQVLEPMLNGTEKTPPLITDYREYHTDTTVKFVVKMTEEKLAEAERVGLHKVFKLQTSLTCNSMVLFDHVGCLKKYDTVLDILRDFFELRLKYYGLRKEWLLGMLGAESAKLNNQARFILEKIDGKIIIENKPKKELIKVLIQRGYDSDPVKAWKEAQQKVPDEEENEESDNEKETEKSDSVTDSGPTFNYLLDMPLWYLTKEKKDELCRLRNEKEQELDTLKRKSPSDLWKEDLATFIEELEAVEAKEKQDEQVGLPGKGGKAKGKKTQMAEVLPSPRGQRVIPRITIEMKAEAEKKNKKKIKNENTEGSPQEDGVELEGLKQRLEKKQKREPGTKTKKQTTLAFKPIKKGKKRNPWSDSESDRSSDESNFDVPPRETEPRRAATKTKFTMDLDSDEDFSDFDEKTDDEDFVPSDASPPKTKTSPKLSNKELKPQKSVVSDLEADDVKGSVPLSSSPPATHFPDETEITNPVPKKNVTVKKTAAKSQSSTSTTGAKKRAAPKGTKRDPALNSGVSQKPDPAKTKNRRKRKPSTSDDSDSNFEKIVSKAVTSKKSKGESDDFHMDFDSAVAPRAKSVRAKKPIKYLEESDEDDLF
# MEASUREMENT NOTES: Inhibition of human topoisomerase 2 at 100 uM relative to control
VALUE KIND: inhibition (%)

Here is how some molecules turned out for inhibition.
MOL: O=C(/C=C/c1ccc(N2CCCC2)cc1)c1ccc([N+](=O)[O-])cc1
MEASUREMENT UNITS: %
inhibition: 96.1

MOL: COc1cc(O)ccc1/C=C/C(=O)c1ccc(F)cc1
MEASUREMENT UNITS: %
inhibition: 0.7

MOL: O=C(/C=C/c1ccc(N2CCCC2)cc1)c1ccc(O)cc1
MEASUREMENT UNITS: %
inhibition: 96.8

MOL: COc1ccc(/C=C/C(=O)c2cccs2)cc1Br
MEASUREMENT UNITS: %
inhibition: 5.8

MOL: O=C(/C=C/c1ccc(F)cc1)c1ccc(O)cc1O
MEASUREMENT UNITS: %
inhibition: 42.2

MOL: COc1cc(O)ccc1C(=O)/C=C/c1ccc(F)cc1
MEASUREMENT UNITS: %
inhibition: 0

MOL: COc1ccc(/C=C/C(=O)c2ccc(O)cc2O)cc1Br
MEASUREMENT UNITS: %
inhibition: 2.4

MOL: O=C(/C=C/c1ccc(F)cc1)c1ccc(O)cc1
MEASUREMENT UNITS: %
inhibition: 0

1 = COc1ccc(C(=O)/C=C/c2ccc(OC)c(Br)c2)c(O)c1
2 = O=C(/C=C/c1ccc(N2CCCC2)cc1)c1ccc(O)cc1O
Query: // compare: 1 vs 2 , metric inhibition, want the smaller Use the label to indicate which entry you chose.
Result: 2

a = COc1ccc(/C=C/C(=O)c2ccc(F)cc2)cc1Br
b = COc1ccc(/C=C/C(=O)c2ccco2)cc1Br
Query: // compare: a vs b , metric inhibition, want the smaller Use the label to indicate which entry you chose.
Result: b
(b: 24.7%, a: 48.7%)

---

# SYSTEM TESTED: DNA topoisomerase 2-alpha (Homo sapiens) (UniProt P11388)
# MEASUREMENT NOTES: Inhibition of human topoisomerase 2 at 20 uM relative to control
VALUE KIND: inhibition (%)

Here is how some compounds turned out for inhibition.
MOL: O=C(/C=C/c1ccc(N2CCCC2)cc1)c1ccc(O)cc1
inhibition (%): 19.1
//
MOL: O=C(/C=C/c1ccc(F)cc1)c1ccc(O)cc1O
inhibition (%): 12.6
//
MOL: COc1ccc(/C=C/C(=O)c2ccco2)cc1Br
inhibition (%): 0

a = COc1ccc(/C=C/C(=O)c2ccc(F)cc2)cc1Br
b = O=C(/C=C/c1ccc(N2CCCC2)cc1)c1ccc([N+](=O)[O-])cc1
Query: inhibition comparison. Which is larger, a or b ? Use the label to indicate which entry you chose.
Result: b
